Molecular target: EGFR del746-750 T790M (Homo sapiens, UniProt P00533, DEL746-750/T790M)
Sequence (P00533 with tags, fused parts or gaps DEL746-750/T790M limits assumed): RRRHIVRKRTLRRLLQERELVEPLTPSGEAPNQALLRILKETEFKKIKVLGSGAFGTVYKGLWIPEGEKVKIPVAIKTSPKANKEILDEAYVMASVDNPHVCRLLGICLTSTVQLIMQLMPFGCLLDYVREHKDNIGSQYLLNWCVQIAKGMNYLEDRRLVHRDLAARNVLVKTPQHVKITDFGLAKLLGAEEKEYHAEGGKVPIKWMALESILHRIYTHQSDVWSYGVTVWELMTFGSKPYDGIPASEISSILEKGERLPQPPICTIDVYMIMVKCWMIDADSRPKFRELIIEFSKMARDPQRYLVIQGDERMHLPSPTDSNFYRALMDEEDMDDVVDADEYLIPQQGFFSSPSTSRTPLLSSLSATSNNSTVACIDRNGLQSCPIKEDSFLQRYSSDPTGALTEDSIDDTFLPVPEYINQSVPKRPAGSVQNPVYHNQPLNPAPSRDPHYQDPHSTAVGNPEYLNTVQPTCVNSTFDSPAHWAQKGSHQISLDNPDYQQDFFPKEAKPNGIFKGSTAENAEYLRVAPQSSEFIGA
Assay: EGFR del746-750 T790M biochemical assay (Caliper mobility shift)
Conditions: 5 μM ATP, 30 min, room temperature; apparent Ki (Morrison) converted by Cheng-Prusoff, Km of ATP 2.1 μM; read-out: EGFR(T790M/d746-750) Ki
Overview of reported Ki across a group of compounds:
Give the value, in units of nM, as a plain number.

>  <compound>
CC(C)CC(C)n1c(CO)nc2cnc(Nc3ccnc(-c4cnn(S(=O)(=O)C5CC5)c4)n3)cc21 (stereo not shown) [Example 478]

>  <measurement>
32.4

$$$$
>  <compound>
CC(C)n1c(CO)nc2cnc(Nc3ccnc(N4CC[C@H](O)[C@@](C)(F)C4)n3)cc21 [Example 702]

>  <measurement>
239

$$$$
>  <compound>
COC1CCN(c2nccc(Nc3cc4c(cn3)nc3n4C(C)(C)CO3)n2)CC1 [Example 532]

>  <measurement>
519

$$$$

Shifting focus to the compound that follows.
State its Ki for this compound: Cc1nc2cnc(Nc3ccnc(-c4cnn(S(C)(=O)=O)c4)n3)cc2n1C(C)C [Example 91]
3.5

----------
Molecular target: phosphor-EGFR in H1975(L585R/T790M) mutant EGFR expressing cells (Homo sapiens, UniProt P00533, L858R/T790M)
Sequence (P00533 25-1210 T790M/L858R): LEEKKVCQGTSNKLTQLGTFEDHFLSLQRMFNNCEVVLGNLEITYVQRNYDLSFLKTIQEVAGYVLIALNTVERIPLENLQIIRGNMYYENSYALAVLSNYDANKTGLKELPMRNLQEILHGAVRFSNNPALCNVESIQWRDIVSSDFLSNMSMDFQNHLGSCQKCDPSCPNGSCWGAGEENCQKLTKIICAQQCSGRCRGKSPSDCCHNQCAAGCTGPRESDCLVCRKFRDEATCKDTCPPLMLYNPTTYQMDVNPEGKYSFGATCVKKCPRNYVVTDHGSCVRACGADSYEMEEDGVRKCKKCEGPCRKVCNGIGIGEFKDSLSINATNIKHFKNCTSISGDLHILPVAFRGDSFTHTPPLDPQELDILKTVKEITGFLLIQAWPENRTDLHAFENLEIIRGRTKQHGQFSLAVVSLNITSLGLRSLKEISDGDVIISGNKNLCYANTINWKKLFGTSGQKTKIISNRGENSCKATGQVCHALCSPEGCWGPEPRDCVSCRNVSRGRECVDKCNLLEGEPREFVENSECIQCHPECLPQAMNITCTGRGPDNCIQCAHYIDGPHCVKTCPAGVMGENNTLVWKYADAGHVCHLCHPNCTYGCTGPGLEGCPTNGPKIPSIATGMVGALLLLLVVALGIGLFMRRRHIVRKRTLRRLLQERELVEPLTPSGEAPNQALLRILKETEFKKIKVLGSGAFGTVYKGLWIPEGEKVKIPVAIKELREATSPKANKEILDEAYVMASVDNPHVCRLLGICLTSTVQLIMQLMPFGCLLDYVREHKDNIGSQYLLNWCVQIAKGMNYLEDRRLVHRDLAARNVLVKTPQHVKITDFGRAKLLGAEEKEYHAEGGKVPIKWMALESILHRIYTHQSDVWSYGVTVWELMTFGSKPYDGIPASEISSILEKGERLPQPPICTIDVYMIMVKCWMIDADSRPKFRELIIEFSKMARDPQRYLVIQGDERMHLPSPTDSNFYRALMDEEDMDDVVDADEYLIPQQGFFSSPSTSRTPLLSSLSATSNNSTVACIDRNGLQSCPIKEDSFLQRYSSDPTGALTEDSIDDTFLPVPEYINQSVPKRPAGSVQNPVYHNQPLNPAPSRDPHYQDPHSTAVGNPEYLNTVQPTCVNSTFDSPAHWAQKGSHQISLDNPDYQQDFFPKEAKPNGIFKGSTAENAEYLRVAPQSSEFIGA
Assay: H1975 pEGFR MSD cellular assay
Details: NCI-H1975 cells, serum starved, 1 hour compound incubation, pEGFR Tyr1068 MSD
readout-name: pEC50
// pEC50: -log10(molar conc.)

Here is how some compounds turned out for pEC50.
>  <compound>
Cc1nc2cnc(Nc3ccnc(-c4cnn(S(=O)(=O)C5CC5)c4)n3)cc2n1C(C)C

>  <pEC50>
6.60

$$$$
>  <compound>
CC(C)n1cc(-c2cnn(CCO)c2)c2cnc(Nc3ccnc(-c4cnn(S(=O)(=O)C5CC5)c4)n3)cc21

>  <pEC50>
7.96

$$$$
>  <compound>
CC1(C)CCOc2nc3cnc(Nc4ccnc(-c5cnn(S(=O)(=O)C6CC6)c5)n4)cc3n21

>  <pEC50>
5.86

$$$$
>  <compound>
COc1ccc(-c2nccc(Nc3cc4c(cn3)ncn4C(C)C)n2)cn1

>  <pEC50>
5.45

$$$$
>  <compound>
CCC(C)n1cc(C(=O)NC2CCOCC2)c2cnc(Nc3ccnc(N4CCC(O)C(C)(C)C4)n3)cc21 (mixture of isomers)

>  <pEC50>
7.46

$$$$

State its pEC50 for this compound: C[C@H](n1c([C@@H](C)O)nc2cnc(Nc3ccnc(-c4cnn(S(=O)(=O)C5CC5)c4)n3)cc21)C(F)(F)F
6.78

State its pEC50 for this compound: CCNC(=O)c1cn(C(C)CC)c2cc(Nc3ccnc(N4CC[C@@H](O)[C@@H](F)C4)n3)ncc12 (single isomer, unassigned)
6.62

State its pEC50 for this compound: CNc1ncc(-c2nccc(Nc3cc4c(cn3)nc(C)n4C(C)C)n2)s1
6.95

----------
Target: EGFR del746-750 T790M (Homo sapiens, UniProt P00533, DEL746-750/T790M)
Assay: EGFR del746-750 T790M biochemical assay (Caliper mobility shift)
Conditions: 5 μM ATP, 30 min, room temperature; apparent Ki (Morrison) converted by Cheng-Prusoff, Km of ATP 2.1 μM; read-out: EGFR(T790M/d746-750) Ki
readout-name: Ki (nM)
Give the value, in units of nM, as a plain number.

>  <compound>
Cc1nc2cnc(Nc3ccnc(N4CCC(C)(O)CC4)n3)cc2n1C(C)C

>  <Ki [nM]>
135

$$$$

State its Ki for this compound: CCC(C)n1cc(C(=O)NC2CCOCC2)c2cnc(Nc3ccnc(N4CCC(C)(O)CC4)n3)cc21 (racemic)
14.9

State its Ki for this compound: COCc1nc2cnc(Nc3ccnc(-c4cnn(S(=O)(=O)C5CC5)c4)n3)cc2n1C(C)C
6.87

State its Ki for this compound: Cc1nc2cnc(Nc3ccnc(-c4cnn(S(=O)(=O)N(C)C)c4)n3)cc2n1C(C)C
14.5

State its Ki for this compound: Cc1nc2cnc(Nc3ccnc(N4CCC(OC(F)F)CC4)n3)cc2n1C(C)C
143

State its Ki for this compound: COC1CCN(c2nccc(Nc3cc4c(cn3)nc(C)n4C(C)(C)C)n2)CC1
14.9

State its Ki for this compound: C[C@@H](O)c1nc2cnc(Nc3ccnc(N4CC[C@@H](O)[C@@H](F)C4)n3)cc2n1[C@H](C)C(F)(F)F
107

----------
Target: EGFR del746-750 T790M (Homo sapiens, UniProt P00533, DEL746-750/T790M)
Test: EGFR del746-750 T790M biochemical assay (Caliper mobility shift)
Conditions: 5 μM ATP, 30 min, room temperature; apparent Ki (Morrison) converted by Cheng-Prusoff, Km of ATP 2.1 μM; read-out: EGFR(T790M/d746-750) Ki
Overview of reported log10 Ki across a group of molecules:
Heads up: the numbers are on a log10 scale; they represent Ki in nM.

Here is how some molecules turned out for log10 Ki.
>  <molecule>
CO[C@H]1CCN(c2nccc(Nc3cc4c(cn3)c(C(=O)NC3CCOCC3)cn4C(C)C)n2)C[C@H]1F

>  <readout-name>
log10 Ki

>  <measurement>
0.97

$$$$
>  <molecule>
CCC(C)n1cc(C(=O)NCC(F)(F)F)c2cnc(Nc3ccnc(-c4cnn(S(=O)(=O)C5CC5)c4)n3)cc21 (stereo not drawn)

>  <readout-name>
log10 Ki

>  <measurement>
0.53

$$$$
>  <molecule>
C[C@H](n1c([C@@H](C)O)nc2cnc(Nc3ccnc(N4CC[C@H](O)[C@H](F)C4)n3)cc21)C(F)(F)F

>  <readout-name>
log10 Ki

>  <measurement>
0.53

$$$$
>  <molecule>
C[C@H](n1c([C@@H](C)O)nc2cnc(Nc3ccnc(OCC(C)(C)S(C)(=O)=O)n3)cc21)C(F)(F)F

>  <readout-name>
log10 Ki

>  <measurement>
1.12

$$$$
>  <molecule>
CO[C@H]1CCN(c2nccc(Nc3cc4c(cn3)nc(C)n4C(C)C)n2)C[C@@H]1F (racemic)

>  <readout-name>
log10 Ki

>  <measurement>
2.35

$$$$

State its log10 Ki for this molecule: COC1CCN(c2nccc(Nc3cc4c(cn3)c(-c3cnn(CCO)c3)cn4C(C)C)n2)CC1
-0.08

State its log10 Ki for this molecule: C[C@H](O)c1nc2cnc(Nc3ccnc(N4CC[C@H](O)[C@H](F)C4)n3)cc2n1[C@H](C)C(F)(F)F
2.59

State its log10 Ki for this molecule: CC(C)n1c(CO)nc2cnc(Nc3ccnc(N4C[C@H]5CC[C@@H](C4)[C@H]5O)n3)cc21
1.24

State its log10 Ki for this molecule: C[C@H](O)c1nc2cnc(Nc3ccnc(N4CC[C@H](O)[C@H](F)C4)n3)cc2n1[C@@H](C)C(F)(F)F
1.27

State its log10 Ki for this molecule: Cc1nc2cnc(Nc3ccnc(N4CCc5[nH]ncc5C4)n3)cc2n1C(C)C
0.91

State its log10 Ki for this molecule: COC1CCN(c2nccc(Nc3cc4c(cn3)c(-c3cc[nH]n3)cn4C(C)C)n2)CC1
0.08

State its log10 Ki for this molecule: C[C@H](n1c(CO)nc2cnc(Nc3ccnc(N4CC[C@H](O)[C@H](F)C4)n3)cc21)C(F)(F)F
0.75

State its log10 Ki for this molecule: Cc1cn[nH]c1-c1cn(C(C)C)c2cc(Nc3ccnc(-c4cnn(S(=O)(=O)C5CC5)c4)n3)ncc12
0.49

State its log10 Ki for this molecule: CC(C)n1cc(C(=O)NC2COC2)c2cnc(Nc3ccnc(-c4cnn(S(=O)(=O)N5CCCC5)c4)n3)cc21
1.46

State its log10 Ki for this molecule: Cc1nc2cnc(Nc3ccnc(N4CCC(O)CC4)n3)cc2n1C(C)C
2.11

State its log10 Ki for this molecule: Cc1nc2cnc(Nc3ccnc(-c4cnc(N)s4)n3)cc2n1C(C)C
0.52

----------
Target: phosphor-EGFR in H1975(L585R/T790M) mutant EGFR expressing cells (Homo sapiens, UniProt P00533, L858R/T790M)
Construct: host or cells: NCI-H1975
Assay: H1975 pEGFR MSD cellular assay
Assay type: cell-based
Conditions: NCI-H1975 cells, serum starved, 1 hour compound incubation, pEGFR Tyr1068 MSD
readout-name: EC50

Here is how some compounds turned out for EC50.
>  <compound>
COC1CCN(c2nccc(Nc3cc4c(cn3)ncn4C3CCCC3)n2)CC1

>  <EC50>
1190 nM

$$$$
>  <compound>
CC(C)n1cc(C(=O)NC2COC2)c2cnc(Nc3ccnc(-c4cnn(S(=O)(=O)N(C)C)c4)n3)cc21

>  <EC50>
177 nM

$$$$
>  <compound>
CCC(C)n1cc(C(=O)NC2CCOCC2)c2cnc(Nc3ccnc(N4CC[C@@H](OC)[C@@H](F)C4)n3)cc21 (single isomer, unassigned)

>  <EC50>
14.5 nM

$$$$
>  <compound>
COC1(CO)CCN(c2nccc(Nc3cc4c(cn3)c(-c3cnn(C(C)(C)C(N)=O)c3)cn4C(C)C)n2)CC1

>  <EC50>
831 nM

$$$$
>  <compound>
CC(C)n1cc(C(N)=O)c2cnc(Nc3ccnc(-c4cnn(S(=O)(=O)C5CC5)c4)n3)cc21

>  <EC50>
181 nM

$$$$

Shifting focus to the compound that follows.
State its EC50 for this compound: CCC(C)n1cc(C(=O)NC2CCOC2)c2cnc(Nc3ccnc(N4CCC(O)C(C)(C)C4)n3)cc21 (mixture of isomers)
67.3 nM

FYI, the data here is from patent US9890152B2.
